molecular target: TDP-43 (Homo sapiens, UniProt Q13148 1-414); test: RNA Bind-n-Seq with designed 260-mer pool; 25 mM Tris-HCl, 150 mM KCl, 3 mM MgCl2, BSA (printed 500 mg/mL), 20 units/mL SUPERase IN; pH not stated; 500 nM RNA pool, 1 h, 4 C; TDP-43 5, 50, 500 nM; high values mean tight binding; details: protein: recombinant; tags: SBP (GST cleaved off with PreScission; pGEX-GST-SBP)
Sequence (Q13148 whole entry): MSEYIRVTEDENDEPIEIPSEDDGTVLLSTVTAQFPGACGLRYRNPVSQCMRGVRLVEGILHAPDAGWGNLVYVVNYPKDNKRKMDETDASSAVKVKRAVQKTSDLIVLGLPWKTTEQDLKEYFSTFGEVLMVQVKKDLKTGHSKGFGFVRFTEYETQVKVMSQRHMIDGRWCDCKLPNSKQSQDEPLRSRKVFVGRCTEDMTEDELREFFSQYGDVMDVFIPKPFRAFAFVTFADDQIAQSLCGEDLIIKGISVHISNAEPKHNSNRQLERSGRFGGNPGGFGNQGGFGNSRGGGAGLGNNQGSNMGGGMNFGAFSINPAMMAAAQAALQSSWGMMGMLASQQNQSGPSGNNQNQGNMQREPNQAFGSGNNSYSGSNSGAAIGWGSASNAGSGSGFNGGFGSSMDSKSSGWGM
Whole data set: some 9,900 sequences, median “r (bound/input frequency ratio)” near 0.7, cut for the highest 2% near 6.5. The list comes from a sample in which the highest values are over-represented; it also holds close analogues and randomly drawn sequences.
OBSERVED_PROPERTY: binding signal

Some solved cases for reference:
[[record]]
binder = "ENSMUSG00000032194.294|Kank2 (ssRNA) RNA: GGGAGUUCUACAGUCCGACGAUCGCUUCGAUAUCCGCAUGCUAAUGGAUGAGAAACUGGGUUGGCUGGUGGGUAGAUGUCAUGAUGGAGUCUUUGCACGUGUAUGAAACAGAAAACCAAACUUCAGGACAGACAGCUGCUGGUGUCUCUGGAUGCUCACAGCCUAGGGCACAUUUGAAAGGUCGUGCUCUGAGCUGAGCCCUGAGUUCCAGCCUUGUAGCCAGCAAGGGAGUUUAUUUAAGGUUCUGGAAGCAUCAGCUAUGACCCAAAGCACACGCUCCUCAGAAAAGCCCCUGUUUCUGUCCUCUUGCGGUCGCACUAGUGUGGAAUUCUCGGGUGUCAAGG"
result_value = "0.914 R (bound/input frequency ratio)"

[[record]]
binder = "ENSMUSG00000058297.314|Spock2 (ssRNA) RNA: GGGAGUUCUACAGUCCGACGAUCGCUUCGAUAUCCGCAUGCUAGCUGAGGCUUCCAGGACAAAGCCCCAGUCUGGCUCUCCCCCAGCCUCUCAGGGGCACUGGCUGGUCACAUCCACUGAGUAUUGAUCGGUUGGACUUUAGGGAAGAGCCUCCUCCUUCCCAUUCCUUUCUGCCACCCUGGAAUGGCCACCUUAAUCGUCAUCUCCUCGGGGGGAAUACGGAAAUGUCACCAAGCUCCAUAAAGUGCUUCUCAUUCCACGACACAGUUCUGACUCUCCGGGUGACUGUCACCUGCUCCCAUCCUCUUGCGGUCGCACUAGUGUGGAAUUCUCGGGUGUCAAGG"
result_value = "1.1 R (bound/input frequency ratio)"

[[record]]
binder = "ENSMUSG00000028439.161|Fam219a (ssRNA) RNA: GGGAGUUCUACAGUCCGACGAUCGCUUCGAUAUCCGCAUGCUAUUCCAGAAAGGCUCUUCAAGAGCAAGCUUAAGGAAAUACAGUGAGCCAAGUGGCUGUAUGAUAUGGUAUGGUAUGGUAUGGUAUGGUAUGGUAUGGUAUGCACAUGUGUGUGCAUGUGUGUGUGCCUGUGUGUGUGCGUGUGCGUGUGUGUAUGUGUGUGCGUGUGUGUGUGUGUGUGUUGUACCCGAGUGUGUGUUGAGCCUAUCUGUCCAGGGAACCAGAUUGGUGUCCGAGAUGAGGAAAUGGCUGUGGCCUGGGAACUCUUGCGGUCGCACUAGUGUGGAAUUCUCGGGUGUCAAGG"
result_value = "8.09 R (bound/input frequency ratio)"

[[record]]
binder = "ENSMUSG00000042529.487|Kcnj12 (ssRNA) RNA: GGGAGUUCUACAGUCCGACGAUCGCUUCGAUAUCCGCAUGCUAGAUGUGCGUCUCACUGGCCUCUGCCUGCCUCUCCCGCCUGCGGAGCACUUACACUUCCUGGGGCCCCUGCAGCUGGACCAUGUACAGGGCUCCCUGGGGCUUGUCCUCAGGGGCAGAGAAGGACAUGGUGGCAGCAGCACUGAGAACAGGAGCAUGGCCUCUCUCAGACCCCAGGGCAGUCAUUCAGUCUUUUCCAUGGACACUCCCCACCGCUCCACAUACUGCCUCCGCCUCAUUCUUGGGCUCUUCCUGCCUUGCUGCUCUUGCGGUCGCACUAGUGUGGAAUUCUCGGGUGUCAAGG"
result_value = "0.428 R (bound/input frequency ratio)"

[[record]]
binder = "ENSMUSG00000042529.54|Kcnj12|94:101;234:238 (ssRNA) RNA: GGGAGUUCUACAGUCCGACGAUCGCUUCGAUAUCCGCAUGCUAGCAAGGAGGUGACUUCUUGGGGUAGGGUUGCUCAGGAGUUAGGGACUCUGCUGGAGGCCUUAGGUGCAGGUCCCAGCCCCGGUGGGAGGAGGCACACAUACUACACUUCAUUGGUUUUUAACUUGGGCAAGACUGUUUACAAACAAAAACAAACAAACAAACAAUCAAAAAAAAAACCCACCCCACAAAACACAAGAAAACAUUAACAGGUGGUUCAAUUUUUAAAAUUCCUGCACACGGGACAGUUGGAAUUCUACUCACUCUUGCGGUCGCACUAGUGUGGAAUUCUCGGGUGUCAAGG"
result_value = "0.46 R (bound/input frequency ratio)"

[[record]]
binder = "ENSMUSG00000061578.75|Ksr2 (ssRNA) RNA: GGGAGUUCUACAGUCCGACGAUCGCUUCGAUAUCCGCAUGCUAAUGGAACCAGAAACAAUACACCUGCUCCGUUGUCAAGGCUUCUAGGCCAAGGUCAGGGUAGGGAGGUGGGGUGGGUUAAACUUGCAAACAUCUGAUUUUAGAGGUCCCAUUCCAAGAUGGAAGUCACCGGUUGCCGCUGAGCACACAAUUCUGAAGGACAGUAGGCAGUCCUGCAGGUCUUUUUUAGCACAGGGCCUCUCUGGGGACCAGUCCCUGGCCUUCACCCUUCUCCCAUUUUGUAAGAACACUGUUCUAACUCACUCUUGCGGUCGCACUAGUGUGGAAUUCUCGGGUGUCAAGG"
result_value = "0.151 R (bound/input frequency ratio)"


For the next question, use this binder.
// fetch binding signal given entry ENSMUSG00000028439.160|Fam219a (ssRNA) RNA: GGGAGUUCUACAGUCCGACGAUCGCUUCGAUAUCCGCAUGCUACCAGGCUUCCAGAAAGGCUCUUCAAGAGCAAGCUUAAGGAAAUACAGUGAGCCAAGUGGCUGUAUGAUAUGGUAUGGUAUGGUAUGGUAUGGUAUGGUAUGGUAUGCACAUGUGUGUGCAUGUGUGUGUGCCUGUGUGUGUGCGUGUGCGUGUGUGUAUGUGUGUGCGUGUGUGUGUGUGUGUGUUGUACCCGAGUGUGUGUUGAGCCUAUCUGUCCAGGGAACCAGAUUGGUGUCCGAGAUGAGGAAAUGGCUGUGGCCCUCUUGCGGUCGCACUAGUGUGGAAUUCUCGGGUGUCAAGG
6.51 R (bound/input frequency ratio)

FYI, the data here is from paper PMC12864922.
